- System: MOLT-4 leukemia
- protocol summary: NCI-60 one-dose screen, 48 h (100 = growth as untreated, 0 = no growth, -100 = all killed)
- condition: 10 µM unless noted
The panel holds about 83,000 compounds, 20% with a hit somewhere; the sample as a whole holds those more often.
quantity name: growth (%)
Answers are plain numbers, in %.

See these solved cases before continuing.
> print(dat)
                                   compound  quantity.name  observed.result
1  COc1ccc(-n2nc(C)c3c(Nc4ccc(NC(=O)Nc5ccc(Cl)c(C(F)(F)F)c5)cc4)ncnc32)cc1         growth             8.28
2  O=C(N(c1ccccc1)c1ccccc1)n1ccc2nc(Cl)nc(Cl)c21         growth             37.1
3  COc1ccc(/C=C/c2nc3ccccc3nc2/C=C/c2ccc(OC)cc2)cc1         growth             99.1
4  O=c1cc(CSc2nnc(SCc3cc(=O)oc4c3ccc3ccccc34)o2)c2ccc3ccccc3c2o1         growth               98
5     FC(F)(F)Oc1ccc2nc3nc4ccc[nH]c4cc3c2c1         growth             68.9
6  c1ccc(Cn2cc(-c3nc4ccccc4s3)c3cccnc32)cc1         growth              105
7           O=C1/C(=C/c2ccccc2O)N=C2SCCCN12         growth              115
8        COc1ccc(CN2c3ccccc3Sc3ccccc32)cc1O         growth             18.4

Quick request: growth for each listed item, please.
1. COc1ccc(C2Nc3c(c(C(C)(C)C)nn3-c3ccccc3)C(=O)CS2)cc1 (configuration not stated)
2. O=C1Nc2cc(-c3ccc(O)cc3)ccc2/C1=C/c1ccc[nH]1

Reply:
1: 75.7; 2: 7.4

* * *

- Tested on: SNB-19 CNS
- protocol summary: NCI-60 one-dose screen, 48 h (100 = growth as untreated, 0 = no growth, -100 = all killed)
- condition: 10 µM unless noted
Compounds without any hit were thinned out: in the full panel of roughly 83,000, 20% have a hit.
quantity name: growth (%)
Answers are plain numbers, in %.

See these solved cases before continuing.
> print(dat)
                                   molecule  tested.target  unit.label  observed.result
1  CCCCC(=O)OCC1OC(n2cnc3c(=S)nc[nH]c32)C(OC(=O)CCCC)C1OC(=O)CCCC (configuration not stated)     SNB-19 CNS           %             64.2
2                O=C1CSC(=S)N1CCc1ccc(O)cc1     SNB-19 CNS           %               93
3              Nc1ccn(-c2ccc(Br)cc2)c(=O)n1     SNB-19 CNS           %              140
4  COc1ccc(-c2nc(SCC(=O)Nc3ccc(C(=O)/C=C/c4ccc(Cl)cc4)cc3)[nH]c(=O)c2C#N)cc1     SNB-19 CNS           %             39.4
5      O=C(Nc1ccc(Cl)cc1)c1cc2cc(F)ccc2cc1O     SNB-19 CNS           %             21.3

Quick request: growth for each listed item, please.
1. CCOc1ccc(-n2nc(C(=O)Nc3cc(OC)c(OC)c(OC)c3)nc2-c2cc(OC)c(OC)c(OC)c2)cc1
2. COc1ccc2cc(-c3nn(-c4ccc(C(=O)O)cc4)cc3CO)ccc2c1

Reply:
82.1
103

* * *

- Tested on: COLO 205 colon
- protocol summary: NCI-60 one-dose screen, 48 h (100 = growth as untreated, 0 = no growth, -100 = all killed)
- condition: 10 µM unless noted
This is part of a sample that, as a whole, favours compounds with a hit. Of some 83,000 tested, about 20% had one in any assay. Calls of active or inactive are those of the source. Rule for the calls: active = growth percent below 10; inactive = the rest.
Provide the reported growth of each item.

See these solved cases before continuing.
> print(dat)
                                    molecule          observed.result
 1  O=C(Nc1cccc2[nH]c(C(F)(F)F)nc12)c1ccc(-n2cnnn2)cc1          105% (inactive)
 2  CCCCC(=O)OCC1OC(n2cnc3c(=S)nc[nH]c32)C(OC(=O)CCCC)C1OC(=O)CCCC (stereo not drawn)         38.8% (inactive)
 3  Cc1cc(N2CCN(C)CC2)nc(NC2CCCC(Nc3ccnc4cc(Cl)ccc34)C2)n1 (stereo not drawn)          -76.1% (active)
 4  O=C(O)c1ccc(N=CC(=O)c2ccc(-c3ccccc3)cc2)cc1          111% (inactive)
 5  Cc1cc(N2CCN(c3ccnc4cc(Cl)ccc34)CC2)nc(NC2CCCCC2)n1          -48.4% (active)
 6  COc1cc(CNc2oc(-c3ccccc3)c(-c3ccccc3)c2C#N)cc(CN2CCN(C)CC2)c1O         54.3% (inactive)
 7  COc1ccc(SC2c3ccc(C)cc3Oc3nc(N)c(C#N)c(N)c32)cc1 (stereo not drawn)          -66.5% (active)
 8    Cc1ccc(NC(=O)/C=C/c2ccccc2)c(C(N)=O)c1          -21.2% (active)
 9  O=C1c2cc3c(cc2-c2c1c1ccc(Cl)cc1c(=O)n2CCCN1CCOCC1)OCO3         54.8% (inactive)
10  Cc1cc(C)nc(SC2=C(Nc3ccc(O)cc3)C(=O)N(Cc3ccccc3)C2=O)n1  108% [40 µM] (inactive)

Quick request: growth for each listed item, please.
1. O=CNc1ccc2c(c1)Cc1cccc(NC=O)c1-2
2. Cn1cc(-c2nonc2-c2cn(C)c3ccc(F)cc23)c2cc(F)ccc21
3. Nc1n[nH]c2ccc([C@@H]3Nc4ccc5cn[nH]c5c4[C@H]4C5CCC(C5)[C@@H]34)cc12 (stereo partly drawn)

Reply:
99.9% (inactive)
62.4% (inactive)
-9.43% (active)

* * *

- System: SW-620 colon
- protocol summary: NCI-60 one-dose screen, 48 h (100 = growth as untreated, 0 = no growth, -100 = all killed)
- condition: 10 µM unless noted
The panel holds about 83,000 compounds, 20% with a hit somewhere; the sample as a whole holds those more often. Active and inactive are the calls of the source. How the source made its calls: active means growth percent below 10; inactive means the rest.
Provide the reported growth of each item.

Quick request: growth for each listed item, please.
1. C#CCOc1ccc2ncnc(N3CCC(NC(=O)CCl)CC3)c2c1
2. O=C(Nc1ccc(Cl)cc1)c1cc2cc(F)ccc2cc1O
3. O=C1c2cc3c(cc2-c2c1c1ccc(Cl)cc1c(=O)n2CCCN1CCOCC1)OCO3
4. CC1=CC(=NN=c2cc(C)n([O-])c(C)c2)C=C(C)[N+]1=O
5. Clc1ccc2c(NCCNc3nc(N4CCOCC4)nc4ccccc34)ccnc2c1
6. CCOc1nc(-c2ccccc2)cc2c(O)c(C(=O)N/N=C/c3ccc(O)cc3O)[nH]c(=O)c12
7. N#Cc1nnn(-c2ccc(S(N)(=O)=O)cc2)c1NCC(=O)c1ccccc1

Reply:
["55.8% [8.25 µM] (inactive)", "15.5% (inactive)", "57.2% (inactive)", "101% (inactive)", "11.2% (inactive)", "44.6% (inactive)", "97.2% (inactive)"]

* * *

- Tested on: LOX IMVI melanoma
- protocol summary: NCI-60 one-dose screen, 48 h
- condition: 10 µM unless noted
About 83,000 compounds went through this panel and 20% of them were active in at least one assay; those are over-represented in the sample as a whole. Activity calls are given as the source filed them. The calls were made as follows: active = growth percent below 10; inactive = the rest.
One label from this list, please: active, inactive

compound	class name
OC(c1cc2cc(Cl)c(Cl)cc2c2cc(C(F)(F)F)ccc12)C1CCCCN1 (stereo not drawn)	active

Task item: Dear colleague, could you share the recorded outcome for COc1ccc(SC2c3ccc(C)cc3Oc3nc(N)c(C#N)c(N)c32)cc1 (stereo not drawn) when you have a moment?
Reply: active

Task item: Request: COC[C@H](C)n1c(C2CCOCC2)nc2cnc3cc(-c4c(C)noc4C)c(OC)cc3c21
Reply: inactive

Task item: Request: O=C(CCl)Oc1ccc(-c2ccccc2)c(Br)c1
Reply: inactive

* * *

- Test system: K-562 leukemia
- protocol summary: NCI-60 one-dose screen, 48 h
- condition: 10 µM unless noted
About 83,000 compounds went through this panel and 20% of them were active in at least one assay; those are over-represented in the sample as a whole. Calls of active or inactive are those of the source. Rule for the calls: active = growth percent below 10; inactive = the rest.
One label from this list, please: active, inactive

Some solved cases for reference:
> print(dat)
                                   compound   tested.target  class.name
1        O=C1C=C(OCC=C(Cl)Cl)C(=O)c2ccccc21  K-562 leukemia    inactive
2  O=S(=O)(Nc1ccc(Br)c(Cl)c1)c1ccc(-c2cnc(C3CC3)o2)cc1  K-562 leukemia    inactive
3  O=C(CN(C(=O)Cn1c(=O)n2nnnc2c2ccccc21)c1ccccc1C(F)(F)F)Nc1ccc(C(F)(F)F)cc1  K-562 leukemia    inactive

Task item: Dear colleague, could you share the recorded outcome for COc1ccc(CCNc2nc(SC)nc(-c3cccc([N+](=O)[O-])c3)c2C#N)cc1OC when you have a moment?
Reply: inactive

Task item: Request: Nc1n[nH]c2ccc([C@@H]3Nc4ccc5cn[nH]c5c4[C@H]4C5CCC(C5)[C@@H]34)cc12 (some centres undefined)
Reply: inactive

Task item: Request: CC1CCNC(C)C1 (centres undefined)
Reply: inactive

Task item: Request: Nc1n[nH]c2ccc([C@@H]3Nc4cc5c(cc4[C@H]4C6CCC(C6)[C@@H]34)C(=O)NC5)cc12 (some centres undefined)
Reply: active

Task item: Request: N=C(N)c1ccc(-c2ccc(-c3ccc4ccccc4c3)s2)s1
Reply: active
